biological target: OXSR1 (human); test: radiometric filter-binding kinase assay, Kinase HotSpot; details: compound 0.5 µM; ATP 10 µM
RESULT_TYPE: residual activity (%)
Your answer should be a plain number; it is taken to be in %.

Reference set, count: 8
Oc1ccc(-c2nc(-c3ccc(F)cc3)c(-c3ccncc3)[nH]2)cc1	97.6
COc1ccc(-c2cnc3c(-c4ccsc4)cnn3c2)cc1	90.3
COc1cc2ncnc(Nc3ccc(F)c(Cl)c3)c2cc1OCCCN1CCOCC1	101
O=C(NC(NC(=S)Nc1ccc(F)c([N+](=O)[O-])c1)C(Cl)(Cl)Cl)C(c1ccccc1)c1ccccc1 (stereo unspecified)	98.3
Nc1n[nH]c2nnc(-c3c(-c4ccccc4)nn4ccccc34)cc12	102
Cc1cc2ncc(-c3ccccc3)nc2cc1C	85.6
CSc1nc(-c2ccc(F)cc2)c(-c2ccnc(NC(C)c3ccccc3)c2)[nH]1 (stereo unspecified)	88.2
O=C1Cc2c([nH]c3ccc([N+](=O)[O-])cc23)-c2ccccc2N1	97

Could you share which residual activity value was measured for O=c1cc(N2CCNCC2)oc2c(-c3ccccc3)cccc12 ?
85.6

Entry to check: C#Cc1cccc(Nc2ncnc3cc(OCCOC)c(OCCOC)cc23)c1
102

Entry to check: CCN1/C(=C/C(C)=O)Sc2ccc(OC)cc21
93.5

Entry to check: Nc1nc(Nc2ccc(S(N)(=O)=O)cc2)nn1C(=O)c1c(F)cccc1F
88.8

Entry to check: CS(=O)c1ccc(-c2nc(-c3ccc(F)cc3)c(-c3ccncc3)[nH]2)cc1 (stereo unspecified)
102

Entry to check: Nc1nc(Nc2ccc(S(N)(=O)=O)cc2)nn1C(=S)Nc1c(F)cccc1F
67.6

Entry to check: CCCNC(=O)Nc1ccc(Oc2ncnc3cc(OC)c(OC)cc23)cc1Cl
96.5

Entry to check: O=C1Nc2ccccc2/C1=C\c1c(Cl)[nH]c2ccccc12
89.1

Entry to check: CC(C)[C@H](CO)Nc1nc(Nc2cccc(Cl)c2)c2ncn(C(C)C)c2n1
94.4

Entry to check: NC(=O)c1ccc(N(C(N)=O)c2c(F)cccc2F)nc1-c1ccc(F)cc1F
96.9

Entry to check: O=C(Nc1ccc(Cl)cc1)c1ccccc1NCc1ccncc1
96.8

Entry to check: CC(C)(C)c1nc2c3ccc(F)cc3c3c(=O)[nH]ccc3c2[nH]1
100

Entry to check: O=C1Nc2cc(Br)ccc2/C1=C1/Nc2ccccc2/C1=N\O
100
